- assay-name: Pharmacokinetics in mice (plasma and brain levels, LC-MS)
- Format: in vivo
- test-context: male, C57BL/6J, iv; mouse, I.V. 1 mg/kg, brain; read-out: t1/2
endpoint-label: half-life (h)

INSERT INTO measurements (line_notation, recorded_measurement) VALUES
  ('O=C(O)COCCN1CCN(C2=Nc3ccccc3Oc3ccc(Cl)cc32)CC1', 1.03);

---

- assay-name: Pharmacokinetics in mice (plasma and brain levels, LC-MS)
- Type: in vivo
- test-context: male, C57BL/6J, po; mouse, P.O. 10 mg/kg, brain
endpoint-label: Tmax (min)

INSERT INTO measurements (compound, recorded_measurement) VALUES
  ('O=C(O)COCCN1CCN(C2=Nc3ccccc3Oc3ccc(Cl)cc32)CC1 [Compound 6]', 15);
